Species on record: Rattus norvegicus
Assay: DrugMatrix - Regimen: Daily Repeat
Format: toxicity, organism-based, Sprague-Dawley
Parameters: regimen Daily Repeat, gender Male, age 6-8 weeks
Settings: in vivo, po, 0 mg/kg, 120 h, tissue Blood, route oral GAVAGE, dose level Control, time 5 day, vehicle 100 % WATER
Measured attribute: LEUKOCYTE COUNT (x10E3/uL)
Answers are plain numbers, in x10E3/uL.

Oc1cccc(O)c1O [PYROGALLOL] = 12.34
CN(C)CCOC(c1ccccc1)c1ccccc1 [DIPHENHYDRAMINE] = 13.67

Give measured LEUKOCYTE COUNT for every item shown.
1. C[C@]12C=CC(=O)C=C1CC[C@@H]1[C@@H]2[C@@H](O)C[C@@]2(C)[C@H]1CC[C@]2(O)C(=O)CO [PREDNISOLONE]
2. CS(=O)(=O)c1ccc([C@@H](O)[C@@H](CO)NC(=O)C(Cl)Cl)cc1 [THIAMPHENICOL]
3. Cn1c(=O)c2[nH]cnc2n(C)c1=O.O [THEOPHYLLINE]
4. O.O.O.O.O.O.[Cl-].[Cl-].[Sr+2] [STRONTIUM CHLORIDE HEXAHYDRATE]
5. CN1[C@@H]2CC[C@H]1C[C@@H](OC(=O)C(CO)c1ccccc1)C2 (some centres undefined) [ATROPINE]

1. 17.9
2. 14.38
3. 15.83
4. 14.38
5. 10.08

Give measured LEUKOCYTE COUNT for every item shown.
1. CC(C)NCC(O)c1ccc(NS(C)(=O)=O)cc1 (centres undefined) [SOTALOL]
2. Cc1ccc(NC(=O)c2ccc(CN3CCN(C)CC3)cc2)cc1Nc1nccc(-c2cccnc2)n1 [IMATINIB]

[12.45, 14.38]
